assay: reduction of polyQ htt aggregates in cells – imaging, exon1htt(103Q)mCFP cells, high-content imaging, primary screen (AID 483); settings: exon1htt(103Q)mCFP cell line, aggregate imaging, at 2 µM; active compounds read high;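 further: compound exposure lasted 3 days before fixation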
Recorded inhibition of aggregation for the following compounds
Report as a plain number; the unit % is understood.

Recorded results for 5 compounds are shown here.
compound: Cc1ccccc1NS(=O)(=O)c1cc(S(C)(=O)=O)ccc1Cl
units text: %
inhibition of aggregation: -3
--
compound: CC1CC(C)CN(CCCNC(=O)c2ccc3c(c2)NC(=O)C(N2CCCCC2)S3)C1 (stereo unspecified)
units text: %
inhibition of aggregation: -6.5
--
compound: O=C(c1ccco1)N1CCN(C2=NS(=O)(=O)c3ccccc32)CC1
units text: %
inhibition of aggregation: -11.3
--
compound: Cn1c(=O)c(=O)n(C)c2cc(S(=O)(=O)Nc3ccc4c(c3)OCCO4)ccc21
units text: %
inhibition of aggregation: -18.4
--
compound: COC(=O)Cc1c(C)nc2nc[nH]n2c1=O
units text: %
inhibition of aggregation: 2.1

Give the reported value of inhibition of aggregation for this record: COc1ccccc1C1CC(c2ccc(C)cc2)Nc2ncnn21 (stereo unspecified)
-31.6

Give the reported value of inhibition of aggregation for this record: "O=C(Nc1ccc(Cl)cn1)c1cccnc1"
2.7

Give the reported value of inhibition of aggregation for this record: "COc1cc(C(=O)NCCc2ccc3c(c2)OCCO3)ccc1OCC(=O)N1CCOCC1"
11.3

Give the reported value of inhibition of aggregation for this record: "O=C(COC(=O)c1cnccn1)c1ccc(OC(=O)c2ccccc2)cc1"
21.7

Give the reported value of inhibition of aggregation for this record: "Cc1cccc(C(=O)N2CCC(n3nnc4cc(F)ccc43)CC2)c1"
-26.4

Give the reported value of inhibition of aggregation for this record: "CN(C)/C=N/c1ncnc2c1cnn2-c1ccc(C(F)(F)F)cn1"
-3.8

###

experiment: blockers of RIG-like receptor reporter activation – cell-based, Sendai virus stimulus, luciferase, 10K MLSCN set, TLR/RLR signaling modifier project, primary screen (AID 602276); conditions: HEK293 RL24 IRF3 luciferase reporter, at 10 µM, active compounds read high;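 further: firefly luciferase from ISG56 promoter only with Renilla not read in this screen; 0% = Sendai virus plus DMSO and 100% = medium plus DMSO without virus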
measured attribute: inhibition (%)
Report as a plain number; the unit % is understood.

Recorded results for 3 molecules are shown here.
molecule: O=C(CN1CCOCC1)N1CCCc2c1c(=O)oc1ccc(OCc3ccccc3)cc21
inhibition, %: -0.877
//
molecule: Cc1[nH]nc2c1C(=O)CCC2
inhibition, %: -1.33
//
molecule: Cc1nc2ccccc2c(=O)n1CC(=O)N1CCOCC1
inhibition, %: 14.1

Now for a further molecule.
Give the reported value of inhibition for this record: Cc1ccc(-n2nnnc2SCC(=O)c2cc(C)n(CC3CCCO3)c2C)cc1 (stereo not given)
15.1

###

assay: endothelial E-selectin expression blockers – imaging, HUVEC, immunofluorescence, MLSMR starter and 10KST1 sets, primary screen (AID 487); details: HUVEC TNFalpha-induced E-selectin immunofluorescence imaging, at 2 µM; active compounds read high;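 further: signal is fraction of cell area covered by stained E-selectin grains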
Recorded inhibition for the following compounds
Report as a plain number; the unit % is understood.

compound: O=C(c1c(Cl)nc2sccn12)N(C(=O)c1c(Cl)nc2sccn12)c1ccc(Cl)cn1
measured attribute: inhibition
recorded value: -97.4
--
compound: CC1(C)CC(=O)CC(C2(O)C(=O)N(Cc3ccccc3)c3ccccc32)O1 (stereo not given)
measured attribute: inhibition
recorded value: -9.4
--
compound: Cc1cccc(C(OC(=O)c2ccco2)C(=O)NCc2ccccc2)n1 (stereo not given)
measured attribute: inhibition
recorded value: -79.6

Give the reported value of inhibition for this record: "O=C1c2ccccc2C(=O)N1CCCCN1CCN(CCCCN2C(=O)c3ccccc3C2=O)CC1"
-22.5

Give the reported value of inhibition for this record: COc1ccc(C2C3=C(OC(C)=O)c4ccccc4C3=Nc3c2c(=O)n(C)c(=O)n3C)cc1 (stereo not given)
-72.4

Give the reported value of inhibition for this record: "CCOC(=O)N1CCN(C(=O)CSc2nnc(COc3ccccc3)o2)CC1"
-3.6
